Hello, the source for this data is paper PMC3033481, in case you need it.

- System: BrdU+ cells in the hippocampal dentate gyrus
- PROTOCOL SUMMARY: In vivo neurogenesis
- Set-up: species or system C57BL/J6 mice
- EXPERIMENTAL SETUP: 10 μM solution infused ICV, 12 μL/day, 7 days, live mice
PROPERTY LABEL: proneurogenic activity (BrdU+ cells in dentate gyrus), in words

MOLECULE	REPORTED VALUE
[N-]=[N+]=Nc1ccc(NCC(O)Cn2c3ccc(Br)cc3c3cc(Br)ccc32)cc1 (stereo not shown)	highly active
OC(CNc1ccccc1)Cn1c2ccccc2c2ccccc21 (stereo not shown)	did not appear active
CCOc1ccc(NCC(O)Cn2c3ccc(Br)cc3c3cc(Br)ccc32)cc1 (stereo not shown)	highly active
OC(CNc1ccccc1)Cn1c2ccc(Cl)cc2c2cc(Cl)ccc21 (stereo not shown) [Compound 1]	did not appear active

* * *

- System: HeLa cells
PROPERTY LABEL: GI50 (µM)
Numbers only, in µM.

Prompt: Fill in the blank: the reported GI50 of OC(CNc1ccccc1)Cn1c2ccc(Br)cc2c2cc(Br)ccc21 (stereo not shown) [Compound P7C3] is ____.
Response: 5.1
